molecular target: Mu-type opioid receptor (Homo sapiens); assay: Displacement of [3H]-DAMGO from mu opioid receptor (unknown origin) expressed in CHO cells incubated for 90 mins in presence of peptidase inhibitors
Sequence (P35372 whole entry): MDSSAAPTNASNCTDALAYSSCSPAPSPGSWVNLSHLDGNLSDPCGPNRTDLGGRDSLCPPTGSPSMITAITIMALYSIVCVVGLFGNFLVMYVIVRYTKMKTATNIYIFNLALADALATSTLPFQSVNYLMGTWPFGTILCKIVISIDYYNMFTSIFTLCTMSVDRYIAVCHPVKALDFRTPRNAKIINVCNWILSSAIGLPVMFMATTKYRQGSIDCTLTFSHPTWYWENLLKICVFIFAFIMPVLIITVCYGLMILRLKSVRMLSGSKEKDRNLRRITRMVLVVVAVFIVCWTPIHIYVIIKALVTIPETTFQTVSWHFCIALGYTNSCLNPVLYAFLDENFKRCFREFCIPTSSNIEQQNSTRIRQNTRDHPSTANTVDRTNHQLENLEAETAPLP
Please use label 1 for Ki under 600 nM and label 0 for everything else, ties included.

Here's what some known entries look like.
smiles representation	label class
C=CCOc1cccc(C[C@H](NC(C)=O)C(=O)N[C@@H](Cc2cccc(OCC=C)c2)C(=O)N[C@@H](Cc2ccccc2)C(=O)N[C@@H](CCCNC(=N)N)C(=O)N[C@@H](CC(C)C)C(=O)N[C@@H](CCCNC(=N)N)C(=O)N[C@@H](CCCNC(=N)N)C(=O)N[C@H](C)C(=O)N[C@@H](CCCNC(=N)N)C(=O)N2CCC[C@H]2C(=O)N[C@@H](CCCCN)C(N)=O)c1	label 1
C=CCOc1ccc(C[C@H](NC(=O)[C@H](Cc2cccc(OCC=C)c2)NC(C)=O)C(=O)N[C@@H](Cc2ccccc2)C(=O)N[C@@H](CCCNC(=N)N)C(=O)N[C@@H](CC(C)C)C(=O)N[C@@H](CCCNC(=N)N)C(=O)N[C@@H](CCCNC(=N)N)C(=O)N[C@H](C)C(=O)N[C@@H](CCCNC(=N)N)C(=O)N2CCC[C@H]2C(=O)N[C@@H](CCCCN)C(N)=O)cc1	label 1
CC(=O)N[C@@H](Cc1ccccc1)C(=O)N[C@H]1Cc2cccc(c2)OC/C=C/COc2ccc(cc2)C[C@@H](C(=O)N[C@@H](CCCNC(=N)N)C(=O)N[C@@H](CC(C)C)C(=O)N[C@@H](CCCNC(=N)N)C(=O)N[C@@H](CCCNC(=N)N)C(=O)N[C@H](C)C(=O)N[C@@H](CCCNC(=N)N)C(=O)N2CCC[C@H]2C(=O)N[C@@H](CCCCN)C(N)=O)NC1=O	label 0
C=CCOc1ccc(C[C@H](NC(=O)[C@H](Cc2ccccc2)NC(C)=O)C(=O)N[C@@H](Cc2ccc(OCC=C)cc2)C(=O)N[C@@H](CCCNC(=N)N)C(=O)N[C@@H](CC(C)C)C(=O)N[C@@H](CCCNC(=N)N)C(=O)N[C@@H](CCCNC(=N)N)C(=O)N[C@H](C)C(=O)N[C@@H](CCCNC(=N)N)C(=O)N2CCC[C@H]2C(=O)N[C@@H](CCCCN)C(N)=O)cc1	label 0

Now let's try a different one.
hey, is Ki for C=CCOc1ccc(C[C@H](NC(=O)[C@H](Cc2cccc(OCC=C)c2)NC(=O)[C@H](Cc2ccccc2)NC(C)=O)C(=O)N[C@@H](CCCNC(=N)N)C(=O)N[C@@H](CC(C)C)C(=O)N[C@@H](CCCNC(=N)N)C(=O)N[C@@H](CCCNC(=N)N)C(=O)N[C@H](C)C(=O)N[C@@H](CCCNC(=N)N)C(=O)N2CCC[C@H]2C(=O)N[C@@H](CCCCN)C(N)=O)cc1 lower than 600 nM or not?
label 0

---

target: Kappa-type opioid receptor (Homo sapiens, UniProt P41145); experiment: Displacement of [3H]-Diprenorphine from kappa opiod receptor (unknown origin) expressed in CHO cells incubated for 90 mins in presence of peptidase inhibitors
Sequence (P41145 whole entry): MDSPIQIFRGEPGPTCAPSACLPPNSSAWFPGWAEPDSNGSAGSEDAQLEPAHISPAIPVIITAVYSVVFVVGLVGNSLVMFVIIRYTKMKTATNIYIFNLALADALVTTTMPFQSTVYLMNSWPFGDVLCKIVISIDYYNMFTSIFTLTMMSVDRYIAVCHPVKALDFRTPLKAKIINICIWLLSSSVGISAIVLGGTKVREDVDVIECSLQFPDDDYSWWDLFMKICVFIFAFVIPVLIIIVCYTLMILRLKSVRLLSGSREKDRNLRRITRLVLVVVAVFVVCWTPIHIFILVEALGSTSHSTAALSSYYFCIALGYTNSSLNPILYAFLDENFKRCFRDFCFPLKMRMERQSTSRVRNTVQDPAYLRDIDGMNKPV
Kindly state pKi for each of the entries shown.
Give bare numbers, as −log10 of the molar value.

Answered examples (3):
smiles representation	pKi
CC(=O)N[C@@H](Cc1ccccc1)C(=O)N[C@H]1Cc2ccc(cc2)OC/C=C/COc2cccc(c2)C[C@@H](C(=O)N[C@@H](CCCNC(=N)N)C(=O)N[C@@H](CC(C)C)C(=O)N[C@@H](CCCNC(=N)N)C(=O)N[C@@H](CCCNC(=N)N)C(=O)N[C@H](C)C(=O)N[C@@H](CCCNC(=N)N)C(=O)N2CCC[C@H]2C(=O)N[C@@H](CCCCN)C(N)=O)NC1=O	7.70
CC(=O)N[C@H]1Cc2cccc(c2)OC/C=C/COc2cccc(c2)C[C@@H](C(=O)N[C@@H](Cc2ccccc2)C(=O)N[C@@H](CCCNC(=N)N)C(=O)N[C@@H](CC(C)C)C(=O)N[C@@H](CCCNC(=N)N)C(=O)N[C@@H](CCCNC(=N)N)C(=O)N[C@H](C)C(=O)N[C@@H](CCCNC(=N)N)C(=O)N2CCC[C@H]2C(=O)N[C@@H](CCCCN)C(N)=O)NC1=O	7.17
CC(=O)N[C@@H](Cc1ccccc1)C(=O)N[C@H]1Cc2cccc(c2)OC/C=C/COc2ccc(cc2)C[C@@H](C(=O)N[C@@H](CCCNC(=N)N)C(=O)N[C@@H](CC(C)C)C(=O)N[C@@H](CCCNC(=N)N)C(=O)N[C@@H](CCCNC(=N)N)C(=O)N[C@H](C)C(=O)N[C@@H](CCCNC(=N)N)C(=O)N2CCC[C@H]2C(=O)N[C@@H](CCCCN)C(N)=O)NC1=O	7.41

Note: attention shifts to another entry.
Value wanted: pKi (Kappa-type opioid receptor (Homo sapiens, UniProt P41145)) of entry C=CCOc1ccc(C[C@H](NC(=O)[C@H](Cc2ccccc2)NC(C)=O)C(=O)N[C@@H](Cc2cccc(OCC=C)c2)C(=O)N[C@@H](CCCNC(=N)N)C(=O)N[C@@H](CC(C)C)C(=O)N[C@@H](CCCNC(=N)N)C(=O)N[C@@H](CCCNC(=N)N)C(=O)N[C@H](C)C(=O)N[C@@H](CCCNC(=N)N)C(=O)N2CCC[C@H]2C(=O)N[C@@H](CCCCN)C(N)=O)cc1
7.93

---

Kindly state Ki for each of the entries shown.
target: UniProtKB P41145; experiment: Displacement of [3H]-Diprenorphine from kappa opiod receptor (unknown origin) expressed in CHO cells incubated for 90 mins in presence of peptidase inhibitors
Answers are plain numbers, in nM.

smiles representation	readout units	measured
CC(=O)N[C@H]1Cc2ccc(cc2)OC/C=C/COc2cccc(c2)C[C@@H](C(=O)N[C@@H](Cc2ccccc2)C(=O)N[C@@H](CCCNC(=N)N)C(=O)N[C@@H](CC(C)C)C(=O)N[C@@H](CCCNC(=N)N)C(=O)N[C@@H](CCCNC(=N)N)C(=O)N[C@H](C)C(=O)N[C@@H](CCCNC(=N)N)C(=O)N2CCC[C@H]2C(=O)N[C@@H](CCCCN)C(N)=O)NC1=O	nM	56.7
C=CCOc1ccc(C[C@H](NC(=O)[C@H](Cc2ccccc2)NC(C)=O)C(=O)N[C@@H](Cc2ccc(OCC=C)cc2)C(=O)N[C@@H](CCCNC(=N)N)C(=O)N[C@@H](CC(C)C)C(=O)N[C@@H](CCCNC(=N)N)C(=O)N[C@@H](CCCNC(=N)N)C(=O)N[C@H](C)C(=O)N[C@@H](CCCNC(=N)N)C(=O)N2CCC[C@H]2C(=O)N[C@@H](CCCCN)C(N)=O)cc1	nM	18.9

Note: attention shifts to another entry.
Value wanted: Ki (UniProtKB P41145) of entry C=CCOc1cccc(C[C@H](NC(C)=O)C(=O)N[C@@H](Cc2cccc(OCC=C)c2)C(=O)N[C@@H](Cc2ccccc2)C(=O)N[C@@H](CCCNC(=N)N)C(=O)N[C@@H](CC(C)C)C(=O)N[C@@H](CCCNC(=N)N)C(=O)N[C@@H](CCCNC(=N)N)C(=O)N[C@H](C)C(=O)N[C@@H](CCCNC(=N)N)C(=O)N2CCC[C@H]2C(=O)N[C@@H](CCCCN)C(N)=O)c1
65.8

---

biological target: Kappa-type opioid receptor (Homo sapiens); assay: Displacement of [3H]-Diprenorphine from kappa opiod receptor (unknown origin) expressed in CHO cells incubated for 90 mins in presence of peptidase inhibitors
Kindly state Ki for each of the entries shown.
Answers are plain numbers, in nM.

Answered examples (5):
smiles representation	measurement target	readout units	measured
C=CCOc1ccc(C[C@H](NC(C)=O)C(=O)N[C@@H](Cc2ccc(OCC=C)cc2)C(=O)N[C@@H](Cc2ccccc2)C(=O)N[C@@H](CCCNC(=N)N)C(=O)N[C@@H](CC(C)C)C(=O)N[C@@H](CCCNC(=N)N)C(=O)N[C@@H](CCCNC(=N)N)C(=O)N[C@H](C)C(=O)N[C@@H](CCCNC(=N)N)C(=O)N2CCC[C@H]2C(=O)N[C@@H](CCCCN)C(N)=O)cc1	Kappa-type opioid receptor (Homo sapiens)	nM	12.1
C=CCOc1ccc(C[C@H](NC(C)=O)C(=O)N[C@@H](Cc2cccc(OCC=C)c2)C(=O)N[C@@H](Cc2ccccc2)C(=O)N[C@@H](CCCNC(=N)N)C(=O)N[C@@H](CC(C)C)C(=O)N[C@@H](CCCNC(=N)N)C(=O)N[C@@H](CCCNC(=N)N)C(=O)N[C@H](C)C(=O)N[C@@H](CCCNC(=N)N)C(=O)N2CCC[C@H]2C(=O)N[C@@H](CCCCN)C(N)=O)cc1	Kappa-type opioid receptor (Homo sapiens)	nM	62.2
C=CCOc1ccc(C[C@H](NC(=O)[C@H](Cc2cccc(OCC=C)c2)NC(C)=O)C(=O)N[C@@H](Cc2ccccc2)C(=O)N[C@@H](CCCNC(=N)N)C(=O)N[C@@H](CC(C)C)C(=O)N[C@@H](CCCNC(=N)N)C(=O)N[C@@H](CCCNC(=N)N)C(=O)N[C@H](C)C(=O)N[C@@H](CCCNC(=N)N)C(=O)N2CCC[C@H]2C(=O)N[C@@H](CCCCN)C(N)=O)cc1	Kappa-type opioid receptor (Homo sapiens)	nM	43.2
CC(=O)N[C@@H](Cc1ccccc1)C(=O)N[C@H]1Cc2ccc(cc2)OC/C=C/COc2ccc(cc2)C[C@@H](C(=O)N[C@@H](CCCNC(=N)N)C(=O)N[C@@H](CC(C)C)C(=O)N[C@@H](CCCNC(=N)N)C(=O)N[C@@H](CCCNC(=N)N)C(=O)N[C@H](C)C(=O)N[C@@H](CCCNC(=N)N)C(=O)N2CCC[C@H]2C(=O)N[C@@H](CCCCN)C(N)=O)NC1=O	Kappa-type opioid receptor (Homo sapiens)	nM	14.7
CC(=O)N[C@H]1Cc2ccc(cc2)OC/C=C/COc2ccc(cc2)C[C@@H](C(=O)N[C@@H](Cc2ccccc2)C(=O)N[C@@H](CCCNC(=N)N)C(=O)N[C@@H](CC(C)C)C(=O)N[C@@H](CCCNC(=N)N)C(=O)N[C@@H](CCCNC(=N)N)C(=O)N[C@H](C)C(=O)N[C@@H](CCCNC(=N)N)C(=O)N2CCC[C@H]2C(=O)N[C@@H](CCCCN)C(N)=O)NC1=O	Kappa-type opioid receptor (Homo sapiens)	nM	11.7

Note: attention shifts to another entry.
Value lookup for Ki; key = CC(=O)N[C@H]1Cc2cccc(c2)OC/C=C/COc2ccc(cc2)C[C@@H](C(=O)N[C@@H](Cc2ccccc2)C(=O)N[C@@H](CCCNC(=N)N)C(=O)N[C@@H](CC(C)C)C(=O)N[C@@H](CCCNC(=N)N)C(=O)N[C@@H](CCCNC(=N)N)C(=O)N[C@H](C)C(=O)N[C@@H](CCCNC(=N)N)C(=O)N2CCC[C@H]2C(=O)N[C@@H](CCCCN)C(N)=O)NC1=O
29.2
